Cited source: ChEMBL document CHEMBL1961873

- Tested on: Tyrosine-protein kinase ABL1 (Homo sapiens), P00519 [H396P]
- CONDITIONS: at 1 µM

SMILES_TEXT: COc1ccc(-c2nn3ncccc3c2-c2ccnc(Nc3ccc(Cl)c(C(F)(F)F)c3)n2)cc1
inhibition / %: 8.65

SMILES_TEXT: NCc1ccc(-c2nc(-c3ccc(Cl)c(O)c3)c(-c3ccncc3)[nH]2)cc1
inhibition / %: 48.9

SMILES_TEXT: NC(=O)c1cccc(Nc2nccc(Nc3cccc4[nH]ncc34)n2)c1
inhibition / %: 96.7

SMILES_TEXT: CS(=O)(=O)CCNCc1ccc(-c2ccc3ncnc(Nc4ccc(OCc5ccccc5)c(Cl)c4)c3c2)o1
inhibition / %: 3.2

SMILES_TEXT: CCn1c(-c2nonc2N)nc2cncc(C(=O)N3CCNCC3)c21
inhibition / %: 4.82

* * *

- MEASUREMENT_TARGET: NUAK family SNF1-like kinase 1 (Homo sapiens)
- CONDITIONS: at 1 µM
- Description: GSK_PKIS: ARK5 mean inhibition at 1 uM [Nanosyn]
OBSERVABLE: inhibition (%)

SMILES_TEXT: c1cnn2ncc(-c3ccnc(Nc4ccc5c(c4)OCCO5)n3)c2c1
NUMERIC_RESULT: 83.2
//
SMILES_TEXT: COc1cc2ncn(-c3cc(O[C@@H](C)c4ccccc4Cl)c(C(N)=O)s3)c2cc1OC
NUMERIC_RESULT: 22.4
//
SMILES_TEXT: COc1ccc(-c2nn3ncccc3c2-c2ccnc(Nc3ccc(Cl)c(C(F)(F)F)c3)n2)cc1
NUMERIC_RESULT: -2.34
//
SMILES_TEXT: CCCN1CCC=C(c2ccc(Nc3nc(Nc4ccccc4C(N)=O)c4cc[nH]c4n3)c(C)c2)C1
NUMERIC_RESULT: 69.8
//
SMILES_TEXT: NC(=O)c1ccc(-c2nc(-c3ccccn3)c(-c3ccc4c(c3)OCO4)[nH]2)cc1
NUMERIC_RESULT: 1.15
//
SMILES_TEXT: CS(=O)(=O)CCN(CC#N)Cc1ccc(-c2ccc3ncnc(Nc4ccc(OCc5cccc(F)c5)c(Cl)c4)c3c2)o1
NUMERIC_RESULT: 1.9
//
SMILES_TEXT: Fc1cccc(COc2ccc(Nc3ncnc4cc(-c5ccc[nH]5)sc34)cc2Cl)c1
NUMERIC_RESULT: 6.42
//
SMILES_TEXT: Nc1ncnc2occ(-c3ccc(NC(=O)Nc4cc(C(F)(F)F)cc(C(F)(F)F)c4)cc3)c12
NUMERIC_RESULT: 2.22
//
SMILES_TEXT: CCn1c(-c2nonc2N)nc2cnc(Oc3cccc(NC(=O)c4ccc(OCCN5CCOCC5)cc4)c3)cc21
NUMERIC_RESULT: 26.9

* * *

- MEASUREMENT_TARGET: Tyrosine-protein kinase Fgr (Homo sapiens);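 note: reported values are mean percent inhibition of FGR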
- CONDITIONS: at 0.1 µM

SMILES_TEXT: COc1cc2ncn(-c3cc(OCc4ccccc4C(F)(F)F)c(C(N)=O)s3)c2cc1OC
inhibition: 4.79%
--
SMILES_TEXT: CN(C)c1cc2c(Nc3ccc4nc(Cc5ccccc5)[nH]c4c3)ncnc2cn1
inhibition: 17.2%
--
SMILES_TEXT: [O-][S+]1CCN(Cc2ccc(-c3ccc4ncnc(Nc5ccc(OCc6ccccc6)c(F)c5)c4c3)o2)CC1
inhibition: 0.4%
--
SMILES_TEXT: Fc1cccc(COc2ccc(Nc3ncnc4cc(-c5ccc[nH]5)sc34)cc2Cl)c1
inhibition: 3.74%
